FYI, the data here is from PubChem BioAssay (NCI).

- System: HCC-2998 colon
- ASSAY TEXT: NCI tumour cell line growth inhibition, 48 h
RECORDED ENDPOINT: TGI

Return reported TGI values for all items listed beneath this line.
1. CCCCCCCCCCCCNCCCc1ccccc1
2. CC(C)(CO)CNc1nc(N)nc(Cl)c1C=O
3. Nc1nc2cc(COc3ccc(C(=O)O)cc3)ccc2nc1-c1ccccc1

1: 3.23 µM; 2: 21.3 µM; 3: > 10 µM

###

- Test system: UACC-257 melanoma
- ASSAY TEXT: NCI tumour cell line growth inhibition, 48 h
Provide the reported TGI of each item.

c1ccc([P+](Cc2ccc(C[P+](c3ccccc3)(c3ccccc3)c3ccccc3)s2)(c2ccccc2)c2ccccc2)cc1    > 100 µM
Cc1ccc(S(=O)(=O)NC(=O)Nc2ncn[nH]2)cc1    > 100 µM

Please report TGI for every entry that follows.
1. c1ccc(Nc2nnc(-c3ccccc3Nc3ccccc3-c3nnc(Nc4ccccc4)s3)s2)cc1
2. CC1(c2cccc(C(F)(F)F)c2)CC(c2cccc(C(F)(F)F)c2)=C(C#N)C(=C(C#N)C#N)N1 (stereo unspecified)
3. CC[C@@]1(O)C(=O)OCc2c1cc1n(c2=O)Cc2cc3c(N)c(OC)ccc3nc2-1
4. NNC(=O)C(=O)N/N=C1\CCCC1C(=O)CCC(=O)Nc1cccc(Cl)c1 (stereo unspecified)

["> 100 µM", "31.7 µM", "2.15 µM", "> 100 µM"]
